# assay procedure: Non-equilibrium solubility by nephelometry, pH 6.5
# Assay type: physicochemical
assay metric: aqueous solubility at pH 6.5 (in words)

compound: Cc1cc(NC2Cc3ccccc3C2)n2ncnc2n1
recorded value: highly soluble
--
compound: CCCc1ccc(Nc2cc(C)nc3ncnn23)cc1
recorded value: highly soluble
--
compound: Cc1cc(NC2CCc3ccccc3C2)n2ncnc2n1 (stereo not shown)
recorded value: highly soluble
--
compound: Cc1cc(Nc2cc(F)c(C(F)(F)F)c(F)c2)n2ncnc2n1
recorded value: poorly soluble
--
compound: Cc1cc(Nc2ccc(C3CC3)cc2)n2ncnc2n1
recorded value: highly soluble
--
compound: Cc1cc(Nc2ccc3c(c2)OCO3)n2ncnc2n1
recorded value: highly soluble
--
compound: Cc1cc(Nc2ccc(SC(F)(F)F)cc2)n2ncnc2n1
recorded value: poorly soluble
--
compound: CCCCc1ccc(Nc2cc(C)nc3ncnn23)cc1
recorded value: poorly soluble
--
compound: Cc1cc(Nc2ccc(C(C)(C)C)c(F)c2)n2ncnc2n1
recorded value: poorly soluble
--
compound: Cc1cc(Nc2ccc(C(C)(C)C)cc2)n2ncnc2n1
recorded value: poorly soluble

====

# assay procedure: Rat pharmacokinetics after IV and oral administration
# Type: in vivo
# test conditions: male, Sprague Dawley, in vivo, iv, 0.9 mg/kg

compound smiles: Cc1cc(Nc2cc(F)c(C(F)(F)F)c(F)c2)n2ncnc2n1
clearance [L/h/kg]: 0.138

====

# assay procedure: In vitro metabolism in human liver microsomes
# Assay type: in vitro ADME
# test conditions: microsomes, pH 7.4
assay metric: microsomal CLint at 1 μM

molecule: C#Cc1ccc(Nc2cc(C)nc3ncnn23)cc1
assay metric: microsomal CLint at 1 μM
recorded value: < 10 µL/min/mg
--
molecule: Cc1cc(Nc2ccc3sccc3c2)n2ncnc2n1
assay metric: microsomal CLint at 1 μM
recorded value: > 30 µL/min/mg
--
molecule: Cc1cc(Nc2ccc3c(c2)CCCC3)n2ncnc2n1
assay metric: microsomal CLint at 1 μM
recorded value: > 30 µL/min/mg
--
molecule: Cc1cc(Nc2ccc(S(F)(F)(F)(F)F)cc2)n2ncnc2n1
assay metric: microsomal CLint at 1 μM
recorded value: < 6 µL/min/mg
--
molecule: Cc1cc(NC2Cc3ccccc3C2)n2ncnc2n1
assay metric: microsomal CLint at 1 μM
recorded value: < 10 µL/min/mg
--
molecule: Cc1cc(NC2CCc3ccccc3C2)n2ncnc2n1 (stereo not shown)
assay metric: microsomal CLint at 1 μM
recorded value: < 10 µL/min/mg
--
molecule: Cc1cc(Nc2ccc(C(C)(C)C)cc2)n2ncnc2n1
assay metric: microsomal CLint at 1 μM
recorded value: > 30 µL/min/mg
--
molecule: Cc1cc(Nc2ccc(SC(F)(F)F)cc2)n2ncnc2n1
assay metric: microsomal CLint at 1 μM
recorded value: < 10 µL/min/mg
--
molecule: Cc1cc(Nc2ccc(C(C)(C)C)c(F)c2)n2ncnc2n1
assay metric: microsomal CLint at 1 μM
recorded value: > 30 µL/min/mg
--
molecule: Cc1cc(Nc2cc(F)c(C(F)(F)F)c(F)c2)n2ncnc2n1
assay metric: microsomal CLint at 1 μM
recorded value: < 6 µL/min/mg

====

# maps each entry to its Eh Mouse
# assay procedure: In vitro metabolism in mouse liver microsomes
# Type: in vitro ADME
# test conditions: predicted hepatic extraction ratio

compound smiles: Cc1cc(Nc2ccc3c(c2)CCC3)n2ncnc2n1
Eh Mouse: 0.94
--
compound smiles: Cc1cc(Nc2ccc(C(C)C)cc2)n2ncnc2n1
Eh Mouse: 0.91
--
compound smiles: Cc1cc(Nc2ccc(C3CC3)cc2)n2ncnc2n1
Eh Mouse: 0.93
--
compound smiles: Cc1cc(Nc2ccc(N(C)C)cc2)n2ncnc2n1
Eh Mouse: 0.91
--
compound smiles: Cc1cc(Nc2ccc(SC(F)(F)F)cc2)n2ncnc2n1
Eh Mouse: 0.84
